The following compounds are listed with their measured EC50 values.
Target: GABAB receptor (Homo sapiens, UniProt O75899+Q9UBS5)
Sequence (Q9UBS5 15-961 limits assumed): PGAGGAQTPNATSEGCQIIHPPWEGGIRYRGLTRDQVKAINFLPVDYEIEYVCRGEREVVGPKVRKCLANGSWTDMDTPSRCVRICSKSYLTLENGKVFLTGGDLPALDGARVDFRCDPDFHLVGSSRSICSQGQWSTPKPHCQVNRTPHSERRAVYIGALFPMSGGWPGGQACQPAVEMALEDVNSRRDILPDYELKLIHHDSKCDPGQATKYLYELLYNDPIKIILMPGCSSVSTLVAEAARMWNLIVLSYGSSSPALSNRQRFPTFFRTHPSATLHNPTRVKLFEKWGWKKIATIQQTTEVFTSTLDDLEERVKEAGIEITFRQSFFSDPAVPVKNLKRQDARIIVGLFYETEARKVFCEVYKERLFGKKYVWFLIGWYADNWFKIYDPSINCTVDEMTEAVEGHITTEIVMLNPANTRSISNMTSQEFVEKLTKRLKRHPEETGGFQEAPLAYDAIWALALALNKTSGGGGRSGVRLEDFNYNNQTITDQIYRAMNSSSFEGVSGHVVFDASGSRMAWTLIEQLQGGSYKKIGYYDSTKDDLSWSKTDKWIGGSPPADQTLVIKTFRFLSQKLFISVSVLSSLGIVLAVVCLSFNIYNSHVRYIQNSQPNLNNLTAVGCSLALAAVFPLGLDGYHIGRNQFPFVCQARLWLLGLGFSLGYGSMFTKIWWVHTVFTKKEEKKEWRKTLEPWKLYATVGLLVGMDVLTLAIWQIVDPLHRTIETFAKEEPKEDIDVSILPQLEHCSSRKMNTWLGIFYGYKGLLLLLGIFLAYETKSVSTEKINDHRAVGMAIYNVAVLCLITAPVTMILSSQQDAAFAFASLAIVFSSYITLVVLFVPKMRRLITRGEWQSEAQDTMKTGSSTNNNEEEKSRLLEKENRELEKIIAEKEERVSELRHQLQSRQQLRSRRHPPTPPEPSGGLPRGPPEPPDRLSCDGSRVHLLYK
Sequence (O75899 42-941): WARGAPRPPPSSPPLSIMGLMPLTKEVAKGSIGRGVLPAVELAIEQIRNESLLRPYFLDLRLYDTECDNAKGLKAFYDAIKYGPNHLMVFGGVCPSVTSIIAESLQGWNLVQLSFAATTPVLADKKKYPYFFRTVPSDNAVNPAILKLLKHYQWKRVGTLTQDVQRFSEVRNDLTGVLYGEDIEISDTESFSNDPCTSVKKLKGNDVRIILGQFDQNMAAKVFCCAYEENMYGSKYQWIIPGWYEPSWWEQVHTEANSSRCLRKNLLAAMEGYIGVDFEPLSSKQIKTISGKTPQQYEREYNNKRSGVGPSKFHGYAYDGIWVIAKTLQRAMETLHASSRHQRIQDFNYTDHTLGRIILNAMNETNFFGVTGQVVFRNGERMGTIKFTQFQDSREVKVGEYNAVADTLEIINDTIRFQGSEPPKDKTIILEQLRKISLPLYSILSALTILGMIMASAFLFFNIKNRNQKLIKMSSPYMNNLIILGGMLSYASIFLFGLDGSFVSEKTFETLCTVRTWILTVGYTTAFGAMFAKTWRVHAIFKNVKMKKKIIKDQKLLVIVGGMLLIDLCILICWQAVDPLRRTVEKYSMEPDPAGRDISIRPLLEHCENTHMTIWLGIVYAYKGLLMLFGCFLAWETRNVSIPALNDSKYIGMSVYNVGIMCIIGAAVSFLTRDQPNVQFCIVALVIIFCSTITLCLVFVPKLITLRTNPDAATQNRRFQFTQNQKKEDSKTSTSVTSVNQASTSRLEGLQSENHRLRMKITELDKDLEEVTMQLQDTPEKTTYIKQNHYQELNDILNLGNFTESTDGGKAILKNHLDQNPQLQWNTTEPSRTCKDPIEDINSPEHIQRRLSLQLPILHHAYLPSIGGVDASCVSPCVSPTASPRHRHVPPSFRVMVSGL
Assay: [35S]-GTPγS binding assay, potency of PAM
Settings: potency of the positive allosteric modulator; log EC50 for GABA plotted against log concentration of modulator
Could you give me the number in nM? Just the number is fine.

The cases that follow already have their EC50 on record.
So what's the measured EC50 for this one? CN(C)c1nc(NC(=O)COCc2ccccc2)c(C(=O)OC(C)(C)C)n1-c1ccccc1 [Example 9]
2470

What do you have for CN(C)c1nc(NC(=O)C2Cc3ccccc3O2)c(C(=O)OC(C)(C)C)n1-c1ccccc1 (stereo not drawn) [Example 13] ?
5130

Further cases:
So what's the measured EC50 for this one? CCCc1c(C(=O)Nc2nc(N(C)C)n(-c3ccccc3)c2C(=O)OC(C)(C)C)cnn1-c1ccccc1 [Example 44]
2530
